# Organism: Rattus norvegicus
# procedureSummary: DrugMatrix - Regimen: Daily Repeat
# Type: toxicity, organism-based, Sprague-Dawley
# Set-up: regimen Daily Repeat, gender Male, age 6-8 weeks
# conditionLabel: in vivo, po, 0 mg/kg, 72 h, tissue Plasma, route oral GAVAGE, dose level Control, time 3 day, […]

compound	LIPASE, u/L
CS(=O)(=O)Nc1ccc([N+](=O)[O-])cc1Oc1ccccc1 [NIMESULIDE]	12.67
CC(=O)Oc1ccccc1C(=O)O	10
CCCCC(=O)N(Cc1ccc(-c2ccccc2-c2nnn[nH]2)cc1)[C@H](C(=O)O)C(C)C	9.67
O=c1c(-c2ccc(O)cc2)coc2cc(O)cc(O)c12	16.67
Cc1ccc(C)c(OCCCC(C)(C)C(=O)O)c1	10
CC(C)c1c(C(=O)Nc2ccccc2)c(-c2ccccc2)c(-c2ccc(F)cc2)n1CC[C@@H](O)C[C@@H](O)CC(=O)O	16.67
c1ccoc1	13.67
CCc1ccc(CCOc2ccc(CC3SC(=O)NC3=O)cc2)nc1 (centres undefined)	10.17
ClC(Cl)(Cl)Cl [CARBON TETRACHLORIDE]	10.33

* * *

# Species: Rattus norvegicus
# procedureSummary: DrugMatrix - Regimen: Daily Repeat
# Type: toxicity, organism-based, Sprague-Dawley
# Design: regimen Daily Repeat, gender Male, age 6-8 weeks
# conditionLabel: in vivo, po, 0 mg/kg, 120 h, tissue Plasma, route oral GAVAGE, dose level Control, time 5 day, vehicle 100 % WATER

molecule	ALANINE AMINOTRANSFERASE [u/L]
CCN(C(C)=O)c1cccc(-c2ccnc3c(C#N)cnn23)c1 [ZALEPLON]	55.33
O=c1[nH]c(=O)n(C2CCCO2)cc1F (stereo not given) [TEGAFUR]	55.5
CN(C)CCC=C1c2ccccc2CCc2ccccc21 [AMITRIPTYLINE]	55.33
CNC1=Nc2ccc(Cl)cc2C(c2ccccc2)=[N+]([O-])C1 [CHLORDIAZEPOXIDE]	50
CCCC(C)C1(CC)C(=O)NC(=O)NC1=O (stereo not given) [PENTOBARBITAL]	60.5
CCN(CC)CCNC(=O)c1ccc(N)cc1 [PROCAINAMIDE]	36.5
NC12CC3CC(CC(C3)C1)C2 [AMANTADINE]	55.33
NC(=O)c1cccnc1 [NIACINAMIDE]	50.5
CCN(CC)CCOC(=O)C1(C2CCCCC2)CCCCC1 [DICYCLOMINE]	43
CN(C)C(=O)Oc1cccc([N+](C)(C)C)c1.[Br-] [NEOSTIGMINE BROMIDE]	60.5

* * *

# Species: Rattus norvegicus
# procedureSummary: DrugMatrix - Regimen: Daily Repeat
# Assay type: toxicity, organism-based, Sprague-Dawley
# Parameters: regimen Daily Repeat, gender Male, age 6-8 weeks
# conditionLabel: in vivo, po, 0 mg/kg, 72 h, tissue Plasma, route oral GAVAGE, dose level Control, time 3 day, vehicle .5 % CMC
Entries and their ALBUMIN

compound	ALBUMIN
C[C@]12CC[C@@H]3c4ccc(O)cc4CC[C@H]3[C@@H]1C[C@@H](O)[C@@H]2O	4.15 G/DL
C#C[C@]1(O)CC[C@H]2[C@@H]3CCC4=CC(=O)CC[C@]4(C)[C@H]3CC[C@@]21C	3.8 G/DL
CCn1cc(C(=O)O)c(=O)c2cc(F)c(N3CCNC(C)C3)c(F)c21 (stereo not drawn)	3.57 G/DL
C[C@@](Cc1ccc(O)c(O)c1)(NN)C(=O)O.O	4.27 G/DL
CCOc1nc2cccc(C(=O)O)c2n1Cc1ccc(-c2ccccc2-c2nnn[nH]2)cc1	4.22 G/DL
CCCNC(=O)NS(=O)(=O)c1ccc(Cl)cc1 [CHLORPROPAMIDE]	4.07 G/DL
CN1C(=O)CN=C(c2ccccc2)c2cc([N+](=O)[O-])ccc21	3.77 G/DL
CCC1=C(C)CN(C(=O)NCCc2ccc(S(=O)(=O)NC(=O)N[C@H]3CC[C@H](C)CC3)cc2)C1=O [GLIMEPIRIDE]	4.15 G/DL

* * *

Entries and their EOSINOPHIL
# Species: Rattus norvegicus
# procedureSummary: DrugMatrix - Regimen: Daily Repeat
# Type: toxicity, organism-based, Sprague-Dawley
# Design: regimen Daily Repeat, gender Male, age 6-8 weeks
# conditionLabel: in vivo, po, 0 mg/kg, 72 h, tissue Blood, route oral GAVAGE, dose level Control, time 3 day, vehicle 100 % WATER

molecule	EOSINOPHIL [%]
CN(C)CCC=C1c2ccccc2CCc2ccccc21	0.5
CN(C)C(=O)Oc1cccc([N+](C)(C)C)c1.[Br-] [NEOSTIGMINE BROMIDE]	0.33
O=c1[nH]c(=O)n(C2CCCO2)cc1F (stereo not given)	1.17
CCN(C(C)=O)c1cccc(-c2ccnc3c(C#N)cnn23)c1	0.5
NC12CC3CC(CC(C3)C1)C2	0.5
CNC1=Nc2ccc(Cl)cc2C(c2ccccc2)=[N+]([O-])C1 [CHLORDIAZEPOXIDE]	0.33
NC(=O)c1cccnc1 [NIACINAMIDE]	0.33
CCCC(C)C1(CC)C(=O)NC(=O)NC1=O (stereo not given)	0.33
CCN(CC)CCNC(=O)c1ccc(N)cc1 [PROCAINAMIDE]	0.33
CCN(CC)CCOC(=O)C1(C2CCCCC2)CCCCC1	0.5

* * *

# Species on record: Rattus norvegicus
# procedureSummary: DrugMatrix - Regimen: Daily Repeat
# Assay type: toxicity, organism-based, Sprague-Dawley
# Parameters: regimen Daily Repeat, gender Male, age 6-8 weeks
# conditionLabel: in vivo, po, 0 mg/kg, 120 h, tissue Blood, route oral GAVAGE, dose level Control, time 5 day, vehicle .5 % CMC

molecule	unitsLabel	LEUKOCYTE COUNT
C[C@]12CC[C@@H]3c4ccc(O)cc4CC[C@H]3[C@@H]1C[C@@H](O)[C@@H]2O [ESTRIOL]	x10E3/uL	15.07
CCCNC(=O)NS(=O)(=O)c1ccc(Cl)cc1 [CHLORPROPAMIDE]	x10E3/uL	11.8
CCCCC1=NC2(CCCC2)C(=O)N1Cc1ccc(-c2ccccc2-c2nnn[nH]2)cc1 [IRBESARTAN]	x10E3/uL	9.63
CN1CCN(C2=Nc3cc(Cl)ccc3Nc3ccccc32)CC1 [CLOZAPINE]	x10E3/uL	11.8
CN1C(=O)CN=C(c2ccccc2)c2cc([N+](=O)[O-])ccc21 [NIMETAZEPAM]	x10E3/uL	9.45
C[C@H]1[C@H](NC(=O)/C(=N\OC(C)(C)C(=O)O)c2csc(N)n2)C(=O)N1S(=O)(=O)O [AZTREONAM]	x10E3/uL	17.67

* * *

# Species on record: Rattus norvegicus
# Assay type: toxicity, organism-based, Sprague-Dawley
# conditionLabel: in vivo, po, 0 mg/kg, 24 h, tissue Blood, route oral GAVAGE, dose level Control, time 1 day, vehicle .5 % CMC
# Description: DrugMatrix - Regimen: Single

chemSmiles	ABSOLUTE EOSINOPHIL
CN(C)CCN(Cc1cccs1)c1ccccn1	47.5 cells/µL

* * *

Entries and their BLOOD UREA NITROGEN
# Organism: Rattus norvegicus
# procedureSummary: DrugMatrix - Regimen: Daily Repeat
# Format: toxicity, organism-based, Sprague-Dawley
# Design: regimen Daily Repeat, gender Male, age 6-8 weeks
# conditionLabel: in vivo, po, 0 mg/kg, 120 h, tissue Plasma, route oral GAVAGE, dose level Control, time 5 day, […]

compound	BLOOD UREA NITROGEN, mg/dL
CCCCC(=O)N(Cc1ccc(-c2ccccc2-c2nnn[nH]2)cc1)[C@H](C(=O)O)C(C)C	14
CCc1ccc(CCOc2ccc(CC3SC(=O)NC3=O)cc2)nc1 (configuration not stated) [PIOGLITAZONE]	11.33
O=c1c(-c2ccc(O)cc2)coc2cc(O)cc(O)c12 [GENISTEIN]	14.83
CS(=O)(=O)Nc1ccc([N+](=O)[O-])cc1Oc1ccccc1 [NIMESULIDE]	13.67
CC(C)c1c(C(=O)Nc2ccccc2)c(-c2ccccc2)c(-c2ccc(F)cc2)n1CC[C@@H](O)C[C@@H](O)CC(=O)O [ATORVASTATIN]	14.83
c1ccoc1 [FURAN]	13.17
CC(=O)Oc1ccccc1C(=O)O [ASPIRIN]	13.5

* * *

# Organism: Rattus norvegicus
# procedureSummary: DrugMatrix - Regimen: Daily Repeat
# Format: toxicity, organism-based, Sprague-Dawley
# Design: regimen Daily Repeat, gender Male, age 6-8 weeks
# conditionLabel: in vivo, po, 0 mg/kg, 72 h, tissue Plasma, route oral GAVAGE, dose level Control, time 3 day, vehicle 100 % WATER
Please mark met if the recorded LACTATE DEHYDROGENASE is equal to or greater than 200 u/L, and not met if it falls below.

molecule	label
CN(C)CCC=C1c2ccccc2CCc2ccccc21	met
CN(C)C(=O)Oc1cccc([N+](C)(C)C)c1.[Br-] [NEOSTIGMINE BROMIDE]	not met
C#Cc1cccc(Nc2ncnc3cc(OCCOC)c(OCCOC)cc23)c1	met
CCCC(C)C1(CC)C(=O)NC(=O)NC1=O (centres undefined)	not met
CCN(C(C)=O)c1cccc(-c2ccnc3c(C#N)cnn23)c1	met
NC(=O)c1cccnc1 [NIACINAMIDE]	met
NC12CC3CC(CC(C3)C1)C2	met
CNC1=Nc2ccc(Cl)cc2C(c2ccccc2)=[N+]([O-])C1 [CHLORDIAZEPOXIDE]	met
O=c1[nH]c(=O)n(C2CCCO2)cc1F (centres undefined)	not met
